TARGET_OF_ASSAY: HuR (Hu antigen R, ELAVL1) (Homo sapiens, UniProt Q15717)
Construct: full-length HuR (FP, SPR); HuR RRM1/2 (AlphaLISA, SPR)
Sequence (Q15717 2-326): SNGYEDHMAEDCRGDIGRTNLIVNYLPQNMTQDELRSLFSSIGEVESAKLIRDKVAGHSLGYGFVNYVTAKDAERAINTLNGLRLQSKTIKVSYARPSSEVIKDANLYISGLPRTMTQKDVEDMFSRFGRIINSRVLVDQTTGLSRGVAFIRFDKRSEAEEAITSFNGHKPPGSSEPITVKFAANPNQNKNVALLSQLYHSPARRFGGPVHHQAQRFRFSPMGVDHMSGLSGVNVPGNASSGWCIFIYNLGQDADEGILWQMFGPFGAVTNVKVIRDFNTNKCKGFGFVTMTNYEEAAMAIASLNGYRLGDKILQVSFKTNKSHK
TEST: FP competition with fluorescein-labeled ARE-Msi1 RNA; SPR direct binding to immobilized HuR; AlphaLISA (Ki […]); CETSA in MDA-MB-231 cells
REPORTED_PROPERTY: pKi
Worth noting: pKi values are minus log10 of concentrations stated in mol/L.

Ask | Entry "CC(C)(C)c1ccc(S(=O)(=O)Nc2ccc3sc(/C=C/C(=O)NO)cc3c2)cc1" , system HuR (Hu antigen R, ELAVL1) (Homo sapiens, UniProt Q15717): what pKi was measured?
Reply | 6.08
